Catalogue of Papp at 24 h, 0.2 mM readings, one per entry.
- EXPERIMENT_DESCRIPTION: Parallel artificial membrane permeability assay (PAMPA)
- Format: in vitro ADME
- CONDITIONS: phosphate buffer pH 7.4, donor 0.2 mM, 24 h at room temperature
Provide only the numeric value, understood in ×10⁻⁶ cm/s.

COC(=O)c1cc(O)c2cc(NC(=O)NCCCCNC(=N)NC/C=C/[C@H]3O[C@@H](n4cnc5c(N)ncnc54)[C@H](O)[C@@H]3O)ccc2c1 [12h]: 0.038
COC(=O)c1cc(O)c2cc(NC(=O)NCCCCNC(=N)NCC[C@H]3O[C@@H](n4cnc5c(N)ncnc54)[C@H](O)[C@@H]3O)ccc2c1 [12f]: 0.055
CC(C)NCC(O)COc1cccc2ccccc12 (stereo not shown) [propranolol, reference compound]: 6

Now take the following compound into account.
Consider the compound COC(=O)c1cc(O)c2cc(NC(=O)NCCCCNC(=N)NCCC[C@H]3O[C@@H](n4cnc5c(N)ncnc54)[C@H](O)[C@@H]3O)ccc2c1 [12g] and give its measured Papp at 24 h, 0.2 mM. 0.039
